Tested on: thyroid hormone receptor (endogenous TRα and TRβ)
assayOverview: GH3-TRE-Ag-Followup confirmation (TOX21_TR_LUC_GH3_Agonist_Followup, aeid 2226)
Type: cell-based, rat
Counter-ions that a name gives are not always drawn.
measure: EMax (% of Control) gh3-tre-agonist-followup-1_agonist

- compound: "CC1=C(/C=C/C(C)=C\\C=C\\C(C)=C\\C(=O)O)C(C)(C)CCC1 [9-cis Retinoic acid, reference compound]"
  studySystem: "thyroid hormone receptor (endogenous TRα and TRβ)"
  result: "76.0 % of Control"
- compound: "Cc1ccc(O)cc1"
  studySystem: "thyroid hormone receptor (endogenous TRα and TRβ)"
  result: "41.4 % of Control"
- compound: "N[C@@H](Cc1cc(I)c(Oc2ccc(O)c(I)c2)c(I)c1)C(=O)O [3,5,3ʹ-Triiodothyronine, reference compound]"
  studySystem: "thyroid hormone receptor (endogenous TRα and TRβ)"
  result: "107.7 % of Control"
- compound: "NCC(=O)CCC(=O)O [Aminolevulinic acid hydrochloride]"
  studySystem: "thyroid hormone receptor (endogenous TRα and TRβ)"
  result: "43.5 % of Control"
- compound: "O=C(O)CCNC(=O)c1ccccc1 [Betamipron, reference compound]"
  studySystem: "thyroid hormone receptor (endogenous TRα and TRβ)"
  result: "90.7 % of Control"
- compound: "CC1=C(/C=C/C(C)=C/C=C/C(C)=C/C(=O)O)C(C)(C)CCC1 [all trans-Retinoic acid, reference compound]"
  studySystem: "thyroid hormone receptor (endogenous TRα and TRβ)"
  result: "97.2 % of Control"
- compound: "Cc1cc(NC(=O)C(=O)O)cc(C)c1Oc1ccc(O)c2c1CCC2 [CP-634384, reference compound]"
  studySystem: "thyroid hormone receptor (endogenous TRα and TRβ)"
  result: "103.7 % of Control"
- compound: "Nc1ccc(S(=O)(=O)Nc2nccs2)cc1"
  studySystem: "thyroid hormone receptor (endogenous TRα and TRβ)"
  result: "19.5 % of Control"
- compound: "N[C@@H](Cc1cc(I)c(Oc2ccc(O)c(I)c2)c(I)c1)C(=O)[O-].[Na+] [3,3ʹ,5-Triiodo-L-thyronine sodium salt, reference compound]"
  studySystem: "thyroid hormone receptor (endogenous TRα and TRβ)"
  result: "96.5 % of Control"
- compound: "O=c1[nH]cnc2c1ncn2[C@H]1CC[C@@H](CO)O1"
  studySystem: "thyroid hormone receptor (endogenous TRα and TRβ)"
  result: "78.5 % of Control"

Send back thyroid hormone receptor (endogenous TRα and TRβ) EMax (% of Control) gh3-tre-agonist-followup-1_agonist of CSCC[C@H](NC(=O)[C@H](Cc1ccc(OS(=O)(=O)O)cc1)NC(=O)[C@@H](N)CC(=O)O)C(=O)NCC(=O)N[C@@H](Cc1c[nH]c2ccccc12)C(=O)N[C@@H](CCSC)C(=O)N[C@@H](CC(=O)O)C(=O)N[C@@H](Cc1ccccc1)C(N)=O [Sincalide, reference compound] only.
19.9 % of Control

Report EMax (% of Control) gh3-tre-agonist-followup-1_agonist on thyroid hormone receptor (endogenous TRα and TRβ) for this entry: "c1csc(-c2ccc(-c3cccs3)s2)c1"
7.5 % of Control

Provide EMax (% of Control) gh3-tre-agonist-followup-1_agonist, recorded with thyroid hormone receptor (endogenous TRα and TRβ), of "CC1(C)COP(Oc2ccccc2)OC1"
5.2 % of Control
